# assay_overview: AUC(0 to t) in CD1 mouse at 2 mg/kg, iv measured upto 10 hrs by LC-MS analysis
# Type: ADME, organism-based
# condition_set: in vivo
observation_type: AUC(0-t) at 10 h (ng·h/mL)
Report as a plain number; the unit ng·h/mL is understood.

Request: Any idea what its AUC(0-t) at 10 h is? The molecule is CN(C)CC[C@@H](Oc1cccc2c1OCO2)c1ccc(F)cc1.O=C(O)C(=O)O
Result: 304

---

# assayed_system: Transporter (Rattus norvegicus)
# Sequence (Q63380 whole entry): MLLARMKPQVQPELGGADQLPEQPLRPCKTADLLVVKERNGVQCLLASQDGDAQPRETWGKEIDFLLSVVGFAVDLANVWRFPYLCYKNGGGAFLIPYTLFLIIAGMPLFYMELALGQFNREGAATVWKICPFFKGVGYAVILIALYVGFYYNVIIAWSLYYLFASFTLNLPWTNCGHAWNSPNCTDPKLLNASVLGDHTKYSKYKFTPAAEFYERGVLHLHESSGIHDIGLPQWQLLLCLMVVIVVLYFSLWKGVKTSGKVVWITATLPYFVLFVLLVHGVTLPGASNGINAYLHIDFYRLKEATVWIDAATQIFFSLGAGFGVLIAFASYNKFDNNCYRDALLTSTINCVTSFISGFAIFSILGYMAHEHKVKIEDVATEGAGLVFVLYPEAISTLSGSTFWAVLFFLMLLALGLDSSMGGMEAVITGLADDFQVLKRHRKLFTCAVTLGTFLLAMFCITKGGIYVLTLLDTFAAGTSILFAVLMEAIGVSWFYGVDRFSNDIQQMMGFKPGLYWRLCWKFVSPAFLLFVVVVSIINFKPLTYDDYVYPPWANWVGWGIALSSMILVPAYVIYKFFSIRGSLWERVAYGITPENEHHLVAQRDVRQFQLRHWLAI
# assay_overview: Antagonist activity at rat cerebral cortex membrane NET incubated for 10 mins in presence of [3H]-NE
observation_type: IC50

Request: Any idea what its IC50 is? The compound is CN(C)CC[C@@H](Oc1cccc2c1OCO2)c1ccc(F)cc1.O=C(O)C(=O)O
Result: 0.087 µM
